Assay Overview: Human HepG2 cell viability assay in 384 well format
Format: toxicity, cell-based
Design: dose 125 nL, time 70.5 hour; concentration not given beside the values
Assay Setup: HepG2 cells, read-out: Inhibition
Property: cytotoxicity at 70.5 h (%)

Molecule: COc1ccccc1C1Cn2c(C)cnc2CN1Cc1ccc(C)nc1 (stereo not given)
Property: cytotoxicity at 70.5 h
Unit Text: %
Assay Value: 22.5
//
Molecule: CN(C)c1ccc(C(=O)N2CCN(c3cnccn3)CC2)cn1
Property: cytotoxicity at 70.5 h
Unit Text: %
Assay Value: -17.1
//
Molecule: CSC(C)C(=O)N(C)CCCc1cc(-c2ccccc2)no1 (stereo not given)
Property: cytotoxicity at 70.5 h
Unit Text: %
Assay Value: 27.1
//
Molecule: Cc1cc(Cl)ccc1NCc1cnn(C2CCS(=O)(=O)C2)c1 (stereo not given)
Property: cytotoxicity at 70.5 h
Unit Text: %
Assay Value: 5.78
//
Molecule: Cc1ccn(-c2cccc(C(=O)N3CCCC(n4ccnc4C)C3)c2)n1 (stereo not given)
Property: cytotoxicity at 70.5 h
Unit Text: %
Assay Value: -11.3

###

Assay Overview: Human HepG2 cell viability assay in 384 well format
Assay type: toxicity, cell-based
Parameters: dose 125 nL, time 70.5 hour; concentration not given beside the values
Assay Setup: HepG2 cells, read-out: Inhibition

Compound: Cc1ccc2oc(C(=O)N3CCCC(c4noc(C)n4)C3)cc2n1 (stereo not drawn)
cytotoxicity at 70.5 h: -5.41%
--
Compound: Cc1nnsc1C(=O)N1C[C@H]2CC[C@@H]1CN(c1cnccn1)C2
cytotoxicity at 70.5 h: -5.21%
--
Compound: CCS(=O)(=O)N1CCN(c2cc(-n3cnc(C)c3C)nc(C)n2)CC1
cytotoxicity at 70.5 h: -2.19%
--
Compound: O=C(CSc1ccccn1)N1C[C@H]2CC[C@@H]1CN(Cc1cscn1)C2
cytotoxicity at 70.5 h: -8.62%
--
Compound: CC1(C)CN=C(N2CCN(CCCN3CCOCC3)CC2)S1
cytotoxicity at 70.5 h: -8.84%
--
Compound: O=C(Cc1ccccc1Cl)NCCN1CCC(c2cccs2)CC1
cytotoxicity at 70.5 h: 1.31%
--
Compound: Cc1noc(C)c1CN(C)C(=O)c1nc(N2CCCC2)ncc1Cl
cytotoxicity at 70.5 h: -11.7%
--
Compound: OCCN1CCN(Cc2cnc3c(-c4ccccc4)cnn3c2)CC1
cytotoxicity at 70.5 h: 6.6%
--
Compound: CNC(=O)CSc1cnn(CC(=O)Nc2cccc(Cl)c2C)c(=O)c1Cl
cytotoxicity at 70.5 h: -16.3%
--
Compound: Cc1cnn(CCNCc2cc(C)no2)c1
cytotoxicity at 70.5 h: 2.88%
--
Compound: CC1CCCN(Cc2ccc(OCc3nccn3C)cc2)C1 (stereo not drawn)
cytotoxicity at 70.5 h: 14.2%
--
Compound: COC(=O)CCCNC(=O)COc1ccccc1C(F)(F)F
cytotoxicity at 70.5 h: -6.88%
--
Compound: CCc1cc(N2CCC(N[C@@H]3CS(=O)(=O)C[C@H]3O)CC2)nc(N(C)C)n1
cytotoxicity at 70.5 h: 0.303%
--
Compound: CCNc1ncc(C(=O)N[C@@H](C)[C@H](O)c2ccccc2)cn1
cytotoxicity at 70.5 h: -2.67%
--
Compound: CCCN1CCC(Nc2nc(CC)ns2)CC1
cytotoxicity at 70.5 h: -2.52%
--
Compound: O=C(Cc1ccc(Br)cc1)N1CC(S(=O)(=O)C2CCCCC2)C1
cytotoxicity at 70.5 h: -4.51%
--
Compound: CC(c1nc(C2CC2)no1)N1CCN(Cc2ccc(C#N)cc2)CC1 (stereo not drawn)
cytotoxicity at 70.5 h: 5.31%
--
Compound: O=C(Cn1cc(-c2ccccc2)ncc1=O)Nc1nc(C2CC2)n[nH]1
cytotoxicity at 70.5 h: 99.8%
--
Compound: O=C(COc1ccccc1)N(Cc1ccncc1)C1CC1
cytotoxicity at 70.5 h: -8.79%
--
Compound: CS(=O)(=O)N1Cc2ccccc2CC2(CCN(Cc3ccccc3)C2)C1 (stereo not drawn)
cytotoxicity at 70.5 h: -9.03%
--
Compound: CCCNC(=O)c1cccc(CNCc2csc(CC)n2)c1
cytotoxicity at 70.5 h: -106%
--
Compound: Cc1nc(-c2ccsc2)ccc1C(=O)N1CCn2c(C)nnc2C1
cytotoxicity at 70.5 h: 11.2%
--
Compound: O=C1NC2(CCN(Cc3ccc(F)cc3)CC2)CC1c1ccncc1 (stereo not drawn)
cytotoxicity at 70.5 h: -8.27%
--
Compound: CC1CCCN1C1CCN(C(=O)c2cccc(-c3ccoc3)c2)CC1 (stereo not drawn)
cytotoxicity at 70.5 h: 10.8%
--
Compound: CCOC(=O)c1sc(NC(=O)CN2C(=O)CCC2=O)c(C#N)c1C
cytotoxicity at 70.5 h: 31.1%
--
Compound: Cn1cc(NS(=O)(=O)c2ccc3c(c2)CCCC3)ccc1=O
cytotoxicity at 70.5 h: 22.1%
--
Compound: CN(C)S(=O)(=O)N1CCCC(c2nccn2Cc2cccnc2)C1 (stereo not drawn)
cytotoxicity at 70.5 h: -4.26%
--
Compound: COc1cc(OC)c(C2SCC(=O)Nc3n[nH]cc32)cc1OC (stereo not drawn)
cytotoxicity at 70.5 h: -1.01%
--
Compound: O=C(O)c1cc(-c2ccoc2)cc(S(=O)(=O)N2CCSCC2)c1
cytotoxicity at 70.5 h: -4.7%
--
Compound: CC1CCCN(CCCNC(=O)c2cn(C)nc2-c2cccnc2)C1 (stereo not drawn)
cytotoxicity at 70.5 h: -2.34%
--
Compound: CC(c1ccccn1)N(C)Cc1ccc(-n2ccnc2)cc1 (stereo not drawn)
cytotoxicity at 70.5 h: 1.45%
--
Compound: c1ccc(C2Cn3ccnc3CN2Cc2ncc[nH]2)cc1 (stereo not drawn)
cytotoxicity at 70.5 h: -1.58%
--
Compound: C[C@H](N)C(=O)N1CCC(c2[nH]ncc2-c2ccccc2)CC1
cytotoxicity at 70.5 h: -4.88%
--
Compound: CC(=O)Nn1ccc2c(nnc3c(-c4ccccc4)cnn32)c1=O
cytotoxicity at 70.5 h: -28.5%
--
Compound: COc1ccccc1C(O)CNCc1c(C(C)C)nn(C)c1N(C)C (stereo not drawn)
cytotoxicity at 70.5 h: 13.7%
--
Compound: COc1ccccc1C1SCC(=O)Nc2c1c(=O)[nH]n2C1CCCCC1 (stereo not drawn)
cytotoxicity at 70.5 h: 20.9%
--
Compound: CS(=O)(=O)c1ccc(NC(=O)NCc2ccc3c(c2)CCC3)cn1
cytotoxicity at 70.5 h: -2.56%
--
Compound: Cc1cccc(C(=O)N2C[C@@H]3CC[C@H](Oc4cccc(F)c4)[C@@H]3C2)n1
cytotoxicity at 70.5 h: -5.82%

From: ChEMBL document CHEMBL3507680
